Where these numbers come from: PubChem BioAssay AID248

# Test system: L1210 leukemia ip in BDF1 mice, survival T/C
# PROTOCOL_SUMMARY: NCI In Vivo Anticancer Drug Screen. Data for tumor model L1210 Leukemia (intraperitoneal) in B6D2F1 (BDF1) mice
# RUN_PARAMETERS: endpoint: mean survival time; dose: 100.0 mg/kg/injection; schedule: Q04DX003 (ip); vehicle: Klucel (hydroxypropylcellulose) (HPC); higher = longer survival
Inconclusive results and toxic doses are left out.
MEASURED_ATTRIBUTE: T/C

See these solved cases before continuing.
Quick one: T/C of `CCOC(=O)Nc1cccc2ccccc12` ? 101 % of control

Entry to check: `CCCCCCC(=O)NC1=C(N2CC2)C(=O)C(NC(=O)CCCCCC)=C(N2CC2)C1=O` 111 % of control

Entry to check: `c1cc(B2OCCNCCO2)ccc1B1OCCNCCO1` 103 % of control

Entry to check: `Cc1cccc(C)c1NS(=O)(=O)c1ccccc1` 101 % of control

Entry to check: `CCOC(=O)C(=O)Cc1sccc1[N+](=O)[O-]` 94 % of control

Entry to check: `CCN(C(=S)c1ccc(Cl)cc1)c1cccc(C)c1` 94 % of control

Further cases:
Quick one: T/C of `O=c1c(Cl)c(C(Cl)(Cl)Cl)c2ccccc2n1O` ? 101 % of control

Entry to check: `CCOC(=O)c1ccccc1NC(=O)Nc1cc([N+](=O)[O-])ccc1F` 88 % of control

Entry to check: COc1ccc(/C(=N/Nc2ccccc2)C(C)C(O)(C(F)(F)F)C(F)(F)F)cc1 (stereo not given) 98 % of control

Entry to check: `NC(=O)c1ccc(C(F)(F)F)cc1O` 100 % of control

Entry to check: `COc1cc(/C=C/C(=O)O)cc(Br)c1O` 104 % of control

Entry to check: `Nc1cc2oc3ccccc3c2c2cccnc12` 106 % of control

Entry to check: `CC(=O)C(CCC(=O)O)(CCC(=O)O)c1ccccc1` 92 % of control

Entry to check: `Cc1cc(=O)n(/C=C/C(=O)O)c2ccccc12` 97 % of control

Entry to check: `Cl/C(=C\c1ccccc1)c1ccccc1` 96 % of control
